# Assay Procedure: inhibitors of E-selectin induction by TNFa, primary screen, imaging, HUVEC, immunofluorescence, MLSMR starter and 10KST1 sets (AID 487);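 note: 100% = median nuclei count of all wells on the same plate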
# Particulars: HUVEC TNFalpha-induced E-selectin immunofluorescence imaging, at 2 µM; measured here: cell number, toxicity
Kindly state nuclei count for each of the entries shown.
Write the answer as a number in %, unit excluded.

Query: Endpoint output: nuclei count of O=C(CNC1C(=O)Nc2ccccc21)Sc1ccccc1 (centres undefined) . Value?
Reply: 118

Query: Endpoint output: nuclei count of CCCOc1ccc(-c2nnc(N)s2)cc1 . Value?
Reply: 164

Query: Endpoint output: nuclei count of O=C(NO)c1ccccc1O . Value?
Reply: 102

Query: Endpoint output: nuclei count of COc1ccc(C(CC(=O)O)NC(=O)OC(C)(C)C)cc1 (centres undefined) . Value?
Reply: 167

Query: Endpoint output: nuclei count of CCCc1cc(C(=O)Cc2ccc(F)cc2)c(O)cc1O . Value?
Reply: 128

Query: Endpoint output: nuclei count of Cc1c(NC(=O)C(CC(=O)O)NCc2ccco2)c(=O)n(-c2ccccc2)n1C (centres undefined) . Value?
Reply: 164

Query: Endpoint output: nuclei count of Cc1nc2oc(C(=O)c3ccc(Br)cc3)c(N)c2c2c1COC(C)(C)C2 . Value?
Reply: 119

Query: Endpoint output: nuclei count of COCCNC(=O)c1c(N)n(/N=C/c2cccs2)c2nc3ccccc3nc12 . Value?
Reply: 107

Query: Endpoint output: nuclei count of CCOc1ccc(-n2c(SCc3ccc(C#N)cc3)nnc2-c2cccnc2)cc1 . Value?
Reply: 157

Query: Endpoint output: nuclei count of CCN(CC)S(=O)(=O)c1ccc2c(c1)c(C(=O)O)cn2C . Value?
Reply: 114

Query: Endpoint output: nuclei count of COc1ccccc1N=Cc1nc(-c2ccccc2)oc1OC(C)=O . Value?
Reply: 132

Query: Endpoint output: nuclei count of CCCCOc1ccc(-c2nnc(N)s2)cc1 . Value?
Reply: 146

Query: Endpoint output: nuclei count of Nc1ccc2c(c1)N1CCN=C1S2 . Value?
Reply: 169

Query: Endpoint output: nuclei count of O=S(=O)(c1cccc2cnccc12)N1CCCNCC1 . Value?
Reply: 120

Query: Endpoint output: nuclei count of NS(=O)(=O)c1ccc(C(=O)O)cc1 . Value?
Reply: 124

Query: Endpoint output: nuclei count of CN1CCCN(C(c2ccccc2)c2ccc(Cl)cc2)CC1 (centres undefined) . Value?
Reply: 120

Query: Endpoint output: nuclei count of COc1cccc(-c2nnc3sc(-c4ccccc4)nn23)c1 . Value?
Reply: 160

Query: Endpoint output: nuclei count of CC[N+](C)(C)Cc1ccccc1Br . Value?
Reply: 123

Query: Endpoint output: nuclei count of NS(=O)(=O)c1cc2c(cc1Cl)NC(C(Cl)Cl)NS2(=O)=O (centres undefined) . Value?
Reply: 134

Query: Endpoint output: nuclei count of C=C(c1ccc(OCCO)cc1)c1ccc(OCCO)cc1 . Value?
Reply: 129

Query: Endpoint output: nuclei count of CC1(C)Cc2c(sc3[nH]c(=S)n(Cc4ccco4)c(=O)c23)CO1 . Value?
Reply: 117

Query: Endpoint output: nuclei count of Cc1cc(=O)oc(C)c1C(=O)Nc1cccc2nonc12 . Value?
Reply: 132

Query: Endpoint output: nuclei count of CO[C@H]1C=CO[C@@]2(C)Oc3c(C)c(O)c4c(O)c(c(C=NN5CCN(C)CC5)c(O)c4c3C2=O)NC(=O)C(C)=CC=C[C@H](C)[C@H](O)[C@@H](C)[C@@H](O)[C@@H](C)[C@H](OC(C)=O)[C@@H]1C . Value?
Reply: 125

Query: Endpoint output: nuclei count of Cc1ccc(C)c(OCc2nnc(NC(=O)c3ccco3)s2)c1 . Value?
Reply: 191
